# Target system: T1, human GIP receptor (human, UniProt P48546 22-466)
# T1 sequence (looked up): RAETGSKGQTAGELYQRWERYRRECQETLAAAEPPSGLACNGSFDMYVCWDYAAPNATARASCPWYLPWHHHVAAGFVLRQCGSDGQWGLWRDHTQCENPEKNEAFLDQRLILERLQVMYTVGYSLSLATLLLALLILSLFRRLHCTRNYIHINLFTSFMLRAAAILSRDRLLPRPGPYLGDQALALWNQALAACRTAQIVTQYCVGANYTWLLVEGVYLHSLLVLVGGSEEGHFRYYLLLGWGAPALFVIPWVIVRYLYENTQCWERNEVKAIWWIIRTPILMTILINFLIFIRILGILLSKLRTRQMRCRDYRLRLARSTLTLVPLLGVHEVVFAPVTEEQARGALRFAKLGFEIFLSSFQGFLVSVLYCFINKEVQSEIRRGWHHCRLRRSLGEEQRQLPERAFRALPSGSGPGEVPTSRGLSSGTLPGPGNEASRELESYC
# Protocol details: cell-based or functional assay
Bridge positions count the residues as written; N and C are the ends. Square brackets hold non-standard residues; d marks the D form. Ends that are not written are not given here. * marks the point of attachment. Acetyl(2-(4-imidazolyl)) = O=C(Cc1c[nH]cn1)*; Aib = CC(C)(N)C(=O)O
Value type: In vitro activity (%) compared with native peptide, vs GIP

1) H[Aib]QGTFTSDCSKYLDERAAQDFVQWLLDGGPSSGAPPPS (not fully specified) [triple agonist of SEQ ID NO: 25]: < 0.1%
2) Y[Aib]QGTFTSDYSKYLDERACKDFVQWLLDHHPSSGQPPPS (bridge 16-20) [triple agonist of SEQ ID NO: 71]: 94.7%
3) H[Aib]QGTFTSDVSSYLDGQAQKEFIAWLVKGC (not fully specified) [triple agonist of SEQ ID NO: 2]: < 0.1%
4) [Acetyl(2-(4-imidazolyl))][Aib]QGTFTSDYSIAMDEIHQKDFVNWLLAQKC (bridge 16-20; not fully specified) [triple agonist of SEQ ID NO: 92]: 0.4%
5) H[Aib]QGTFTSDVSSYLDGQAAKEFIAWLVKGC [triple agonist of SEQ ID NO: 1]: < 0.1%
